measured-target: full-length recombinant MrkA protein (Klebsiella pneumoniae, UniProt P12267)
Sequence (P12267 23-202): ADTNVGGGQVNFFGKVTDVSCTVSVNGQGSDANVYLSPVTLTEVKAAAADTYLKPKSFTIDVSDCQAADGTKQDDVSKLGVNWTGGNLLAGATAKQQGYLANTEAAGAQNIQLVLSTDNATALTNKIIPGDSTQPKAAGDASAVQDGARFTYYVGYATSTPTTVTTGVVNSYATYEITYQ
Assay type: binding
conditions-used: ELISA 2; [MrkA] 25 nM
Bridge positions count the residues as written; N and C are the ends. Square brackets hold non-standard residues; d marks the D form. Triazole bridges read from a SMILES are 1,4-linked. Peptide text beside a SMILES is read from it. * marks the point of attachment. Biotin = O=C1N[C@H]2[C@H](CS[C@H]2CCCCC(=O)*)N1; PEG10 = NCCOCCOCCOCCOCCOCCOCCOCCOCCOCCOCCC(=O)O; Lys(N3) = [N-]=[N+]=NCCCC[C@H](N)C(=O)O; Pra = C#CC[C@H](N)C(=O)O
Please go through the items and note down their Relative affinity (ratio of ELISA signal versus cy(LLFFF)).

Some compounds with recorded Relative affinity (ratio of ELISA signal versus cy(LLFFF)):
- compound: "CC(C)C[C@@H]1NC(=O)[C@@H](NC(=O)CCOCCOCCOCCOCCOCCOCCOCCOCCOCCOCCNC(=O)CCCC[C@@H]2SC[C@@H]3NC(=O)N[C@@H]32)Cc2cn(nn2)CCCC[C@@H](C(N)=O)NC(=O)[C@H](Cc2ccccc2)NC(=O)[C@H](C)NC(=O)[C@H](Cc2ccccc2)NC(=O)[C@H](CC(C)C)NC1=O [compound 5] ({Biotin-PEG10}-[Pra]LLFAF[Lys(N3)]-NH2; triazole 1-7)"
  measured-target: "full-length recombinant MrkA protein (Klebsiella pneumoniae, UniProt P12267)"
  observed: 0.10
- compound: "CC(C)C[C@@H]1NC(=O)[C@H](CC(C)C)NC(=O)[C@@H](NC(=O)CCOCCOCCOCCOCCOCCOCCOCCOCCOCCOCCNC(=O)CCCC[C@@H]2SC[C@@H]3NC(=O)N[C@@H]32)Cc2cn(nn2)CCCC[C@@H](C(N)=O)NC(=O)[C@H](Cc2ccccc2)NC(=O)[C@H](Cc2ccccc2)NC(=O)[C@H](C)NC1=O [compound 4] ({Biotin-PEG10}-[Pra]LLAFF[Lys(N3)]-NH2; triazole 1-7)"
  measured-target: "full-length recombinant MrkA protein (Klebsiella pneumoniae, UniProt P12267)"
  observed: 0.59

Turning now to a further compound:
Lookup: Recorded Relative affinity (ratio of ELISA signal versus cy(LLFFF)) of CC(C)C[C@@H]1NC(=O)[C@@H](NC(=O)CCOCCOCCOCCOCCOCCOCCOCCOCCOCCOCCNC(=O)CCCC[C@@H]2SC[C@@H]3NC(=O)N[C@@H]32)Cc2cn(nn2)CCCC[C@@H](C(N)=O)NC(=O)[C@H](Cc2ccccc2)NC(=O)[C@H](Cc2ccccc2)NC(=O)[C@H](Cc2ccccc2)NC(=O)[C@H](C)NC1=O [compound 3] ({Biotin-PEG10}-[Pra]LAFFF[Lys(N3)]-NH2; triazole 1-7) , please.
Found: 0.26

Data origin, for the record: patent US12201679B2
